- PROTOCOL SUMMARY: ovarian cancer cell viability with rucaparib, profiling panel, oncology-focused library, rucaparib conditional (AID 1508598)
- CONDITION INFO: patient-derived ovarian cancer cells, CellTiter-Glo viability, 144 h; at 0.0781 µM; OCI-P5x cells; without rucaparib; hits give low values
OBSERVED PROPERTY: viability (%)
Field format: number, assumed %, no unit text.

INSERT INTO results (mol_smiles, recorded_value) VALUES
  ('S=c1nc[nH]c2nc[nH]c12', 87.6),
  ('CCCCCCNC(=O)n1cc(F)c(=O)[nH]c1=O', 117),
  ('O=c1[nH]cnc2[nH]ncc12', 105),
  ('Cc1ccc(-c2cc(C(F)(F)F)nn2-c2ccc(S(N)(=O)=O)cc2)cc1', 94.3),
  ('CC(C)C(=O)Nc1ccc([N+](=O)[O-])c(C(F)(F)F)c1', 112),
  ('O=c1[nH]cc(F)c(=O)[nH]1', 102);

Assign viability to the following record: CC1=C(/C=C/C(C)=C/C=C/C(C)=C/C(=O)O)C(C)(C)CCC1
115

Assign viability to the following record: NC(=O)c1ccc(-c2nc(-c3ccc4c(c3)OCO4)c(-c3ccccn3)[nH]2)cc1
94.4
